Where do these numbers come from? They come from patent US4220771A.

- assay explanation: toxicity in mice, 48 hours observation, Litchfield-Wilcoxon graphic method
- Assay type: in vivo
- measurement parameters: mouse, in vivo, iv
LD50 at 48 h: recorded values
Quick note: give the figure in mg/kg, leave out the unit.

{"columns": ["structure as smiles", "observed value"],
 "data": [
  ["Cc1cc(C)n2c(=O)c3c(nc2c1)CCC3", 120]
]}

Which measured LD50 at 48 h value corresponds to Cc1ccc2nc3c(c(=O)n2c1)CCC3 ?
120

State the recorded LD50 at 48 h for this entry: O=c1c2c(nc3ccccn13)CCCCCC2
125

Quick one: LD50 at 48 h for O=c1c2c(nc3ccccn13)CCCCC2 ?
210

If you can, please state the reported LD50 at 48 h value of Cc1ccn2c(=O)c3c(nc2c1)CCC3 .
120

Sample Cc1cccc2nc3c(c(=O)n12)CCCC3 — what was its LD50 at 48 h?
160
